Test system: Corn (CN)
Experiment: Post-emergence herbicide test
Assay type: in vivo
Settings: Zea mays, 336 h, 8 lb/acre, two weeks after treatment
Under this convention, 1 denotes pest or weed control at 8966.8 g/ha strictly below 60% and 0 denotes pest or weed control at 8966.8 g/ha at or above 60%.

compound | label
CNC(=O)Nc1nnc(C(C)(C)C)s1 [Example 86] | 0
CC(C)NC(=O)Nc1nnc(C(F)(F)F)s1 [Example 11] | 1
CNC(=O)Nc1nnc(S(C)(=O)=O)s1 [Example 33] | 0
CCN(C(=O)NC)c1nnc(C(F)(F)F)s1 [Example 37] | 0
CSc1nnc(N(C)C(=O)N(C)C)s1 [Example 5] | 0
CNC(=O)Nc1nnc(CC(C)C)s1 [Example 21] | 1
CSc1nnc(NC(=O)NC(C)C)s1 [Example 30] | 1
C=CCNC(=O)Nc1nnc(SC)s1 [Example 31] | 1
CNC(=O)Nc1nnc(-c2ccccc2Cl)s1 [Example 74] | 1
O=C(Nc1ccccc1)Nc1nnc(C(F)(F)F)s1 [Example 14] | 1
CNC(=O)Nc1nnc(OC)s1 [Example 24] | 1

----------
System: Turnip (TP)
Test: Post-emergence herbicide test
Type: in vivo, Brassica sp.
Conditions: Brassica rapa, post-emergence, 336 h; 4 lb/acre; two weeks after treatment
The following compounds are listed with their measured pest or weed control at 4483.4 g/ha values.
recorded.metric: pest or weed control at 4483.4 g/ha (%)

structure.string | scale.unit | meas.value
CNC(=O)Nc1nnc(C2CC2)s1 | % | 60
CNC(=O)Nc1nnc(SCC(C)=O)s1 | % | 80
CCCS(=O)(=O)c1nnc(NC(=O)NC)s1 | % | 100
CNC(=O)Nc1nnc(SC(C)C)s1 | % | 100
CNC(=O)Nc1nnc(SCC(=O)OC)s1 | % | 70
CCCCS(=O)(=O)c1nnc(NC(=O)NC)s1 | % | 100
CN(C)C(=O)N(C)c1nnc(C(F)(F)F)s1 | % | 100
CN(C)C(=O)N(C)c1nnc(C(C)(C)C)s1 | % | 100
CNC(=O)N(C)c1nnc(C(C)(C)C)s1 | % | 100
CCCCCCSc1nnc(NC(=O)NC)s1 | % | 100
CCS(=O)(=O)c1nnc(N(C)C(=O)NC)s1 | % | 100
CNC(=O)Nc1nnc(-c2cccc(C(F)(F)F)c2)s1 | % | 60
CCSc1nnc(N(C)C(=O)NC)s1 | % | 100
CNC(=O)Nc1nnc(C(F)(F)F)s1 | % | 100

----------
Tested on: Johnson grass (JG)
Test: Post-emergence herbicide test
Format: in vivo, Sorgum helepense
Conditions: Sorghum halepense, 336 h, 8 lb/acre, two weeks after treatment
The following molecules are listed with their measured pest or weed control at 8966.8 g/ha values.
recorded.metric: pest or weed control at 8966.8 g/ha (%)

molecule | scale.unit | meas.value
CNC(=O)Nc1nnc(OC)s1 [Example 24] | % | 20
O=C(Nc1ccccc1)Nc1nnc(C(F)(F)F)s1 [Example 14] | % | 20
CNC(=O)N(C)c1nnc(C(F)(F)F)s1 [Example 36] | % | 100
CCc1nnc(NC(=O)N(C)C)s1 [Example 20] | % | 20

----------
System: Corn (CN)
Test: Post-emergence herbicide test
Format: in vivo
Conditions: Zea mays, 336 h, 8 lb/acre, two weeks after treatment

structure.string | assayed.target | pest or weed control at 8966.8 g/ha (%)
O=C(Nc1ccc(Cl)cc1)Nc1nnc(C(F)(F)F)s1 | Corn (CN) | 20
CNC(=O)Nc1nnc(-c2ccc(Cl)cc2Cl)s1 | Corn (CN) | 30
CCSCCSc1nnc(NC(=O)NC)s1 | Corn (CN) | 0
CNC(=O)Nc1nncs1 | Corn (CN) | 10
CNC(=O)Nc1nnc(-c2ccc(Cl)cc2)s1 | Corn (CN) | 0
CCc1nnc(NC(=O)NC)s1 | Corn (CN) | 20
O=C(Nc1ccc(Cl)c(Cl)c1)Nc1nnc(C(F)(F)F)s1 | Corn (CN) | 20
CNC(=O)Nc1nnc(C(F)(F)F)s1 | Corn (CN) | 100
Cc1nnc(NC(=O)N(C)C)s1 | Corn (CN) | 20
CCCSc1nnc(N(C)C(=O)NC)s1 | Corn (CN) | 100
CNC(=O)Nc1nnc(COC)s1 | Corn (CN) | 30
CNC(=O)Nc1nnc(C(F)(F)Cl)s1 | Corn (CN) | 40
CNC(=O)Nc1nnc(-c2ccccc2)s1 | Corn (CN) | 50
CCCNC(=O)Nc1nnc(C(F)(F)F)s1 | Corn (CN) | 40
CCCNC(=O)Nc1nnc(SC)s1 | Corn (CN) | 20
CNC(=O)Nc1nnc(SC)s1 | Corn (CN) | 40
CNC(=O)Nc1nnc(C)s1 | Corn (CN) | 20
CCNC(=O)Nc1nnc(C(F)(F)F)s1 | Corn (CN) | 30
CNC(=O)N(C)c1nnc(SC)s1 | Corn (CN) | 100
CN(C)C(=O)Nc1nnc(C(F)(F)F)s1 | Corn (CN) | 100
CNC(=O)Nc1nnc(-c2cccc(Cl)c2)s1 | Corn (CN) | 0
CCc1nnc(NC(=O)N(C)C)s1 | Corn (CN) | 30
CNC(=O)Nc1nnc(SCc2ccc(Cl)cc2)s1 | Corn (CN) | 10
C=CCNC(=O)Nc1nnc(C(F)(F)F)s1 | Corn (CN) | 40
